Assay system: Mitogen-activated protein kinase 1 (Homo sapiens, UniProt P28482)
Sequence (P28482 whole entry): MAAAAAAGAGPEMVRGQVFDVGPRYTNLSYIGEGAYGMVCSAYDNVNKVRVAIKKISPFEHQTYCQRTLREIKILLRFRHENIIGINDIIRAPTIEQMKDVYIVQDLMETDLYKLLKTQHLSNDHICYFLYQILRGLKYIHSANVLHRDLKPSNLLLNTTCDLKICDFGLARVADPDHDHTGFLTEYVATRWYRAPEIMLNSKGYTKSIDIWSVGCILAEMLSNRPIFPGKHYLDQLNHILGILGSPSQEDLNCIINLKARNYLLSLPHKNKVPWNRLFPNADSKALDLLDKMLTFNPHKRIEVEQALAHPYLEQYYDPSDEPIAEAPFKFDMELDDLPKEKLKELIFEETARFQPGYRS
Method summary: Inhibition of ERK2 (unknown origin) incubated for 60 mins by luminescence based ADP-Glo kinase assay
Would you kindly list IC50 for each of these molecules?
Return type: number; implicit unit nM.

Given the entry `O=C(Nc1ccc(Br)cc1)N[C@@H](Cc1ccccc1)Cn1c[n+](Cc2ccc3ccccc3c2)c2ccccc21` , report its measured IC50.
277

Also `O=C(Nc1cc(C(F)(F)F)cc(C(F)(F)F)c1)N[C@@H](Cc1ccccc1)Cn1c[n+](Cc2cccc(F)c2)c2ccccc21` ?
133

Also `CC(C)[C@@H](Cn1cc[n+](Cc2ccccc2)c1)NC(=O)Nc1cc(C(F)(F)F)cc(C(F)(F)F)c1` ?
606

Also `O=C(Nc1cc(C(F)(F)F)cc(C(F)(F)F)c1)N[C@@H](Cc1ccccc1)Cn1c[n+](Cc2cccc(C(F)(F)F)c2)c2ccccc21` ?
185

Also `O=C(Nc1cc(C(F)(F)F)cc(C(F)(F)F)c1)N[C@@H](Cc1ccccc1)Cn1c[n+](Cc2cccc(Cl)c2)c2ccccc21` ?
166

Also `O=C(Nc1cc(C(F)(F)F)cc(C(F)(F)F)c1)N[C@@H](Cc1ccccc1)Cn1c[n+](Cc2ccc(F)cc2)c2ccccc21` ?
294

###

System: HCC1937
Method summary: Antiproliferative activity against human HCC1937 cells incubated for 48 hrs by CCK-8 method
Format: functional, cell-based
Measurement context: HCC1937, 48 h
Endpoint name: pIC50
Interpret pIC50 as the negative base-10 log of the concentration measured in mol/L.

Given the entry `O=C(Nc1cc(C(F)(F)F)cc(C(F)(F)F)c1)N[C@@H](Cc1ccccc1)Cn1c[n+](Cc2ccccc2Cl)c2ccccc21` , report its measured pIC50.
5.73

Also `O=C(Nc1ccc(Cl)c(C(F)(F)F)c1)N[C@@H](Cc1ccccc1)Cn1c[n+](Cc2ccc3ccccc3c2)c2ccccc21` ?
5.59

Also `O=C(Nc1cc(C(F)(F)F)cc(C(F)(F)F)c1)N[C@@H](Cc1ccccc1)Cn1c[n+](Cc2ccc(Cl)cc2Cl)c2ccccc21` ?
5.81

Also `O=C(Nc1cc(C(F)(F)F)cc(C(F)(F)F)c1)N[C@@H](Cc1ccccc1)Cn1c[n+](Cc2cccc(Br)c2)c2ccccc21` ?
5.77

Also `O=C(Nc1cc(C(F)(F)F)cc(C(F)(F)F)c1)N[C@@H](Cc1ccccc1)Cn1c[n+](Cc2ccccc2Br)c2ccccc21` ?
5.52

Also `O=C(Nc1cc(C(F)(F)F)cc(C(F)(F)F)c1)N[C@@H](Cc1ccccc1)Cn1c[n+](Cc2ccc(F)cc2)c2ccccc21` ?
5.38

Also `O=C(Nc1cc(C(F)(F)F)cc(C(F)(F)F)c1)N[C@@H](Cc1ccccc1)Cn1c[n+](Cc2ccc(C(F)(F)F)cc2)c2ccccc21` ?
5.57

###

Test system: HCC1937
Method summary: Antiproliferative activity against human HCC1937 cells incubated for 48 hrs by CCK-8 method
Type: functional, cell-based
Measurement context: HCC1937, 48 h
Endpoint name: IC50

Given the entry `O=C(Nc1ccc(Cl)c(Cl)c1)N[C@@H](Cc1ccccc1)Cn1c[n+](Cc2ccc3ccccc3c2)c2ccccc21` , report its measured IC50.
3.37 µM

Also `Cc1cc(C)cc(NC(=O)N[C@@H](Cc2ccccc2)Cn2c[n+](Cc3ccc4ccccc4c3)c3ccccc32)c1` ?
5.98 µM

Also `CC(C)Nc1cc(-c2c[nH]c(C(=O)N[C@H](CO)c3cccc(Cl)c3)c2)c(Cl)cn1` ?
> 10 µM

Also `O=C(Nc1ccc(C(F)(F)F)cc1)N[C@@H](Cc1ccccc1)Cn1c[n+](Cc2ccc3ccccc3c2)c2ccccc21` ?
2.98 µM

Also `C=CC[n+]1cn(C[C@H](Cc2ccccc2)NC(=O)Nc2cc(C(F)(F)F)cc(C(F)(F)F)c2)c2ccccc21` ?
> 10 µM

Also `O=C(Nc1cc(C(F)(F)F)cc(C(F)(F)F)c1)N[C@@H](Cc1ccccc1)Cn1c[n+](Cc2ccc3ccccc3c2)c2ccccc21.[Br-]` ?
1.68 µM

Also `CC[n+]1cn(C[C@H](Cc2ccccc2)NC(=O)Nc2cc(C(F)(F)F)cc(C(F)(F)F)c2)c2ccccc21` ?
> 10 µM
